Hey, just so you know, these numbers are from PubChem BioAssay.

Answer each item with its documented viability.
# method notes: viability of HCT116 without oncogenic beta-catenin – human colon tumor cells, pilot screen (AID 823);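 further: 0% = wells killed by 20 µM Hyamine and 100% = untreated DMSO cell wells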
# run conditions: HCT116 beta-catenin knockout viability, CellTiter-Glo, 60 h; at 10 µM; active compounds read low
Records with an inconclusive call do not appear.
Just the number please, in %, no unit attached.

Query: Please look up its viability: CCc1ccc(-n2c(O)cnc2Nc2nc(C)cc(C)n2)cc1
Result: 103

Query: And Cc1ccc2oc(=O)c3cnn(CC(=O)N4CCCCC4C)c3c2c1 (stereo unspecified) ?
Result: 84.1

Query: Can you handle Cc1ccc(Nc2ncnc3nc[nH]c23)cc1Cl next?
Result: 105

Query: Moving on to the next molecule: COc1ccc(N(CC(=O)O)S(=O)(=O)c2ccc(OC)c(OC)c2)cc1
Result: 105

Query: Also, COc1ccccc1-n1c(=O)[nH]c2c(C(N)=O)nc(CC(C)C)nc21 please.
Result: 97.9

Query: Another molecule to look at: COc1ccccc1-c1nc(-c2ccc(Br)cc2)no1
Result: 84.2

Query: Another: Cc1ccc(NC(=O)CN(c2ccc3c(c2)OCO3)S(=O)(=O)c2c(C)n[nH]c2C)cc1
Result: 95.7

Query: Next entry: COC1CCCCC1Nc1cccc(SC)c1 (stereo unspecified)
Result: 80.6

Query: Then this molecule: COc1cccc2cc(C(=O)N3CCC(C)CC3)c(=O)oc12
Result: 96.8

Query: # repeat for O=C1c2ccccc2C(Nc2ccc(F)c(Cl)c2)N1Cc1ccco1 (stereo unspecified)
Result: 72.8

Query: Try this molecule too: CCn1c(SCC(=O)Nc2cccc(C)c2)nc2c(c1=O)SC(C)C2 (stereo unspecified)
Result: 95.1
